system_name: TAAR1 (Homo sapiens)
Sequence (Q96RJ0 1-339): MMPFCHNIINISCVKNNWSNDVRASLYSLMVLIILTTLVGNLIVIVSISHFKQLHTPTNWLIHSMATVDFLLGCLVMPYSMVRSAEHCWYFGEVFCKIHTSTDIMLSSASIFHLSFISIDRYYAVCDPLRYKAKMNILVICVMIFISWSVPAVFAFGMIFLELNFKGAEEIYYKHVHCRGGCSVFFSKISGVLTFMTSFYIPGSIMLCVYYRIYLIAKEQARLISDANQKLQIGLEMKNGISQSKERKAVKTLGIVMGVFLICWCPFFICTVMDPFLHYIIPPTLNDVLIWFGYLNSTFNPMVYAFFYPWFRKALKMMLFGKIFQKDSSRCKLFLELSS
assay_info: BRET-based cellular cAMP (EPAC biosensor) assay of TAAR1 agonism in transfected HEK-293 cells
settings: HEK293, read-out: Emax: maximum observed activation of TAAR1 relative to that observed for 1 μM of β-PEA
Can you tell me Emax for the items I'm about to list?
Remember to put the unit after the number in your answer.

Query (compound): Cc1ccccc1-c1nnc(CCN)[nH]1.Cl ; field requested: Emax 116%

Would you kindly repeat that for Cl.NCCc1nnc(-c2ccc(OCc3ccc(F)cc3)cc2)[nH]1 ? 114%

Next: COc1cc(OC)cc(-c2nnc(CCN)[nH]2)c1.Cl 55%

Then this compound: Cl.NCCc1nnc(-c2ccc(-c3ccc(Cl)cc3)cc2)[nH]1 101%

Further, for Cl.NCCc1nnc(-c2cccc(-c3ccc(OC(F)(F)F)cc3)c2)[nH]1 ? 94%

What about Cl.NCCc1nnc(-c2ccc(-c3cccc(F)c3)cc2)[nH]1 ? 95%

Also, Cl.NCCc1nnc(-c2ccc3ncccc3c2)[nH]1 please. 41%

Check Cl.NCCc1nnc(-c2cccc(O)c2)[nH]1 too. 88%

Please give the result for Cc1cc(C)cc(-c2nnc(CCN)[nH]2)c1.Cl too. 117%

Here is the next compound: Cl.NCCc1nnc(-c2cccc(Oc3ccccc3Cl)c2)[nH]1 71%

Same lookup for Cl.NCCc1nnc(-c2ccc(-c3ccc(OC(F)(F)F)cc3)cc2)[nH]1 , please. 95%

Same question for Cl.NCCc1nnc(-c2cccc([N+](=O)[O-])c2)[nH]1 please. 110%

Try this compound too: Cl.NCCc1nnc(-c2ccc(OCc3ccccc3F)c(I)c2)[nH]1 87%

What do we get for Cl.NCCc1nnc(-c2ccc(OCc3ccccc3)cc2)[nH]1 ? 113%

Then this compound: Cl.NCCc1nnc(-c2ccc(OC(F)(F)F)cc2)[nH]1 116%

One more compound: CCCCOc1ccc(-c2nnc(CCN)[nH]2)cc1.Cl 107%

Do the same for Cc1cc(-c2nnc(CCN)[nH]2)ccc1Br.Cl please 87%

Please answer likewise for Cl.NCCc1nnc(-c2ccc(-c3ccc(F)cc3F)cc2)[nH]1 93%

Input Cl.NCCc1nnc(-c2ccc(OCc3ccccc3F)cc2)[nH]1 114%

Also check COc1ccc(-c2nnc(CCN)[nH]2)cc1.Cl 56%
